test system: CD2F1 mice, L1210 leukemia ip, survival T/C; experiment: NCI In Vivo Anticancer Drug Screen. Data for tumor model L1210 Leukemia (intraperitoneal) in CD2F1 (CDF1) mice; conditions: endpoint: mean survival time; dose: 200.0 mg/kg/injection; schedule: Q04DX003 (ip); vehicle: saline with Tween-80; higher = longer survival
Toxic doses and inconclusive results are not listed.
The entries below are paired with their reported T/C.

**Q:** Give its T/C value. Item: CC1CC(=O)C(CCC#N)=C(O)C1 (stereo not drawn)
**A:** 91 % of control

---
**Q:** Give its T/C value. Item: "CCN(CC)Cc1cc(Nc2ncnc3scc(C)c23)ccc1O"
**A:** 97 % of control

**Q:** Give its T/C value. Item: CC(O)C1CCC2C3CCC4CC(O)CCC4(C)C3CCC12C (stereo not drawn)
**A:** 96 % of control

**Q:** Give its T/C value. Item: "Nc1cccc(-c2nc3ncnc(N)c3[nH]2)c1"
**A:** 94 % of control

**Q:** Give its T/C value. Item: "CCOC(=O)Nc1cc(Cl)ccc1O"
**A:** 103 % of control

**Q:** Give its T/C value. Item: "Cc1cc(NC(=O)Oc2ccc([N+](=O)[O-])cc2)ccc1S(=O)(=O)F"
**A:** 96 % of control

**Q:** Give its T/C value. Item: "C/C(=N\Nc1ccc([N+](=O)[O-])cc1[N+](=O)[O-])C1CCCCC1"
**A:** 91 % of control

**Q:** Give its T/C value. Item: "O=C1NC(=O)C2=C1C1(Cl)C(Cl)=C(Cl)C2(Cl)C1(Cl)Cl"
**A:** 101 % of control

**Q:** Give its T/C value. Item: "CCOc1ccc(NC(=S)NC(=O)/C=C/c2ccccc2)cc1"
**A:** 96 % of control

**Q:** Give its T/C value. Item: O=C(O)C(O)(c1ccccc1)c1ccsc1 (stereo not drawn)
**A:** 98 % of control

**Q:** Give its T/C value. Item: "CCCCC#CC(C)C"
**A:** 102 % of control

**Q:** Give its T/C value. Item: "CCCCNCCC#N"
**A:** 95 % of control

**Q:** Give its T/C value. Item: CC(=O)NC1CCCC(C)C1 (stereo not drawn)
**A:** 96 % of control

**Q:** Give its T/C value. Item: "C=CCOc1cccc[n+]1CC(=O)CC(O)(C(F)(F)F)C(F)(F)F"
**A:** 92 % of control

**Q:** Give its T/C value. Item: "COc1ccc(C(=O)O)c(N)c1"
**A:** 97 % of control

**Q:** Give its T/C value. Item: "[C-]#[N+]CCS(=O)(=O)CC[N+]#[C-]"
**A:** 102 % of control

**Q:** Give its T/C value. Item: "CCOC(=O)c1c(N)sc2c1CCN(Cc1ccccc1)C2"
**A:** 93 % of control

**Q:** Give its T/C value. Item: CC(Cl)CN(CC(C)Cl)c1ccc2c(c1)Cc1cc(F)ccc1-2 (stereo not drawn)
**A:** 96 % of control

**Q:** Give its T/C value. Item: "CN1C(=O)c2ccccc2C1(c1ccccc1)c1ccccc1"
**A:** 103 % of control

###

The entries below are paired with their reported T/C.
system: CD2F1 mice, L1210 leukemia ip, survival T/C; assay: NCI In Vivo Anticancer Drug Screen. Data for tumor model L1210 Leukemia (intraperitoneal) in CD2F1 (CDF1) mice; conditions: endpoint: mean survival time; dose: 400.0 mg/kg/injection; schedule: Q04DX003 (ip); vehicle: saline; higher = longer survival
Toxic doses and inconclusive results are not listed.

**Q:** Give its T/C value. Item: "CCC12OC3(CC)C4C(=O)OC1C1(CC)OC4(CC)C3C(=O)OC21"
**A:** 94 % of control

**Q:** Give its T/C value. Item: "CC(=O)Nc1ccc2c(c1)C(=O)c1ccccc1-2"
**A:** 92 % of control

**Q:** Give its T/C value. Item: O=C1OC(C(O)CO)C(O)=C1O (centres undefined)
**A:** 98 % of control

###

tested on: CD2F1 mice, L1210 leukemia ip, survival T/C; test: NCI In Vivo Anticancer Drug Screen. Data for tumor model L1210 Leukemia (intraperitoneal) in CD2F1 (CDF1) mice; details: endpoint: mean survival time; dose: 12.5 mg/kg/injection; schedule: Q01DX009 (ip); vehicle: water
Toxic doses and inconclusive results are not listed. How the source made its calls: active means survival T/C of 150% or more; inactive means T/C below 125% in these data.
Please answer using one outcome listed in active, inactive

**Q:** For "Cn1ccc(=Nc2ccc(NC(=O)c3ccc(N=c4ccn(C)c5ccc([N+](=O)[O-])cc45)cc3)cc2)cc1" , which call appears in the assay record?
**A:** active

**Q:** For "COc1cc2c(C)nc3c4cc5c(cc4ccc3c2cc1OC)OCO5" , which call appears in the assay record?
**A:** inactive

**Q:** For "ClC1CC[N-]CC1.ClC1CC[N-]CC1.[Cl][Pt+2]([Cl])([Cl])[Cl]" , which call appears in the assay record?
**A:** inactive

**Q:** For CS(=O)CSCC(N)C(=O)O (stereo unspecified) , which call appears in the assay record?
**A:** inactive

**Q:** For "NC(N)=N/N=C\c1c2ccccc2cc2ccccc12" , which call appears in the assay record?
**A:** inactive

**Q:** For COC1=CC23CCCN2CCc2cc4c(cc2C3C1O)OCO4 (stereo unspecified) , which call appears in the assay record?
**A:** inactive

**Q:** For O=C1NC(CN2CCOCC2)C(=O)NC1CN1CCOCC1 (stereo unspecified) , which call appears in the assay record?
**A:** inactive

**Q:** For "CNNCc1ccc(/C=N/NC(N)=S)cc1" , which call appears in the assay record?
**A:** inactive

---
**Q:** For "COc1cc2ccc(/C=C\[N+](=O)[O-])cc2cc1OC" , which call appears in the assay record?
**A:** inactive

**Q:** For "[O-][n+]1ccccc1C[P+](c1ccccc1)(c1ccccc1)c1ccccc1" , which call appears in the assay record?
**A:** inactive

**Q:** For "Cc1cccnc1Br" , which call appears in the assay record?
**A:** inactive

###

test system: CD2F1 mice, L1210 leukemia ip, survival T/C; experiment: NCI In Vivo Anticancer Drug Screen. Data for tumor model L1210 Leukemia (intraperitoneal) in CD2F1 (CDF1) mice; settings: endpoint: mean survival time; dose: 100.0 mg/kg/injection; schedule: Q01DX009 (ip); vehicle: saline sonified; higher = longer survival
Toxic doses and inconclusive results are not listed.
The entries below are paired with their reported T/C.

// worked examples, T/C included
**Q:** Give its T/C value. Item: "COc1cc([C@@H]2c3cc4c(cc3[C@H](OC(C)=O)[C@H]3COC(=O)[C@@H]23)OCO4)cc(OC)c1OC"
**A:** 88 % of control

**Q:** Give its T/C value. Item: CC(C)C(C(O)c1ccccc1)[N+](=O)[O-] (centres undefined)
**A:** 102 % of control

**Q:** Give its T/C value. Item: "O=C1Cc2ccccc2C(=O)N1"
**A:** 97 % of control

// below: T/C requested for another compound
**Q:** Give its T/C value. Item: "N#CO"
**A:** 118 % of control

###

system: CD2F1 mice, L1210 leukemia ip, survival T/C; assay: NCI In Vivo Anticancer Drug Screen. Data for tumor model L1210 Leukemia (intraperitoneal) in CD2F1 (CDF1) mice; conditions: endpoint: mean survival time; dose: 75.0 mg/kg/injection; schedule: Q01DX001 (ip); vehicle: saline; higher = longer survival
Toxic doses and inconclusive results are not listed.
Measurement Label: T/C

// worked examples, T/C included
**Q:** Give its T/C value. Item: CCC/C=C(\C)C(C#N)CC (configuration not stated)
**A:** 100 % of control

**Q:** Give its T/C value. Item: C[N+]12CCC34C5=CC(=O)C(=O)C=C5[N+]5(C)C(=O)CC6OCC=C(C1)C(CC32)C6C45 (configuration not stated)
**A:** 106 % of control

**Q:** Give its T/C value. Item: "CCCC(CCC)NCCO"
**A:** 98 % of control

**Q:** Give its T/C value. Item: "CCCCCCCCCCCCCCCC(=O)NCC[N+](C)(C)C"
**A:** 107 % of control

**Q:** Give its T/C value. Item: "CO/N=C(/c1ccccc1)c1cccc[n+]1C"
**A:** 97 % of control

**Q:** Give its T/C value. Item: "NC(=O)c1ccc[n+](Cc2ccccc2)c1"
**A:** 98 % of control

---
**Q:** Give its T/C value. Item: O=C1C2CC=CC2C1(Cl)Cl (configuration not stated)
**A:** 91 % of control

###

test system: CD2F1 mice, L1210 leukemia ip, survival T/C; assay: NCI In Vivo Anticancer Drug Screen. Data for tumor model L1210 Leukemia (intraperitoneal) in CD2F1 (CDF1) mice; conditions: endpoint: mean survival time; dose: 25.0 mg/kg/injection; schedule: Q04DX003 (ip); vehicle: saline with Tween-80; higher = longer survival
Inconclusive results and toxic doses are left out.
The entries below are paired with their reported T/C.

// worked examples, T/C included
**Q:** Give its T/C value. Item: COc1ccc2c(c1)CCC1(C)C2=CC(=O)/C1=C\[O-].COc1ccc2c(c1)CCC1(C)C2=CC(=O)/C1=C\[O-].[Cu+2] (configuration not stated)
**A:** 96 % of control

**Q:** Give its T/C value. Item: "C=CN1C(=O)NC2(CCCCC2)C1=O"
**A:** 92 % of control

**Q:** Give its T/C value. Item: "O=C1/C(=C(/c2ccccc2)N2CCOCC2)Cc2ccccc21"
**A:** 98 % of control

**Q:** Give its T/C value. Item: N#CC1C(=O)NC(O)(c2ccccc2)C1c1ccccc1 (configuration not stated)
**A:** 105 % of control

---
**Q:** Give its T/C value. Item: "Cc1c(O)ccc([N+](=O)[O-])c1O"
**A:** 102 % of control

**Q:** Give its T/C value. Item: "O=S(=O)(F)c1ccccc1"
**A:** 95 % of control

**Q:** Give its T/C value. Item: "COC(=O)c1ccccc1N1C(=O)C=CC1=O"
**A:** 89 % of control

**Q:** Give its T/C value. Item: "N#CC(C#N)=Cc1ccc2c(c1)CCC2"
**A:** 100 % of control

**Q:** Give its T/C value. Item: "O=N[O-].O=N[O-].[NH-]CC[NH-].[Pt+2]"
**A:** 101 % of control
